Assignment: determine reported Net Luminescence (treatment luminescence counts − vehicle control luminescence counts) for the given molecules.
- Experimental Target: 20S proteasome (Mus musculus, UniProt O55234)
- Construct: endogenous in cells; host or cells: B16 melanoma cells (lysate after 20-24 h treatment)
- Sequence (O55234 60-264): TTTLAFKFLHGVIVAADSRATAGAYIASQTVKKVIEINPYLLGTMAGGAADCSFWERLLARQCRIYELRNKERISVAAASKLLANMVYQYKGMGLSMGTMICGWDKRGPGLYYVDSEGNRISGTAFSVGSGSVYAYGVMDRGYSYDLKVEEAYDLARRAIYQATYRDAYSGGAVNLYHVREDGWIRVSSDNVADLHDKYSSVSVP
- Test Protocol: Proteasomal protease in vitro assay (ProteasomeGlo, Suc-LLVY luminogenic substrate) in B16 melanoma cells
- Type: cell-based
- Measurement Conditions: ricinoleate compound alone, 0.008 w/v %; B16 cells
- Method: The following proteasomal protease in vitro assay was employed for evaluating activity associated with this pathway. […] Luminescence counts (a unit less measurement from the plate reader) from developing the cleaved substrate with luciferase detection system (ProteasomeGlo® from Promega, Madison, Wis.) was measured in an Envision Plate Reader (Perkin Elmer, Waltham, Mass.). Other plate luminometer/luminescence readers may also be used as known in the art. […]
Answers are plain numbers.

>  <Molecule>
CCCCCC[C@H](C/C=C\CCCCCCCC(=O)OCCCC)OC(C)=O [Butyl acetyl ricinoleate, butyl acetyl ricinoleate]

>  <Experimental Target>
20S proteasome (Mus musculus, UniProt O55234)

>  <Reported Result>
2439

$$$$
>  <Molecule>
CCCCCC[C@@H](O)C/C=C\CCCCCCCC(=O)OC [Methyl ricinoleate, methyl ricinoleate]

>  <Experimental Target>
20S proteasome (Mus musculus, UniProt O55234)

>  <Reported Result>
4222

$$$$
>  <Molecule>
CCCCCC[C@@H](O)C/C=C\CCCCCCCC(=O)[O-].[Na+] [Sodium ricinoleate, sodium ricinoleate]

>  <Experimental Target>
20S proteasome (Mus musculus, UniProt O55234)

>  <Reported Result>
2164

$$$$

--- query ---
CCCCCC[C@@H](O)C/C=C\CCCCCCCC(=O)OCC(O)CO (stereo partly shown) [Glyceryl ricinoleate, glyceryl ricinoleate] has a reported Net Luminescence (treatment luminescence counts − vehicle control luminescence counts) of 867
